Value source: patent US20190367631A1

Listed binders paired with reported koff
# target-or-system: T1, human MSR1 extracellular domain expressed with a N-terminal nonahistidine tag (His9-hMSR1); R&D Systems, Cat … (human, UniProt P21757 77-451)
# T1 construct: extracellular domain; Bought reagent; also called His-hMSR1; 9xHis-hMSR1
# T1 sequence: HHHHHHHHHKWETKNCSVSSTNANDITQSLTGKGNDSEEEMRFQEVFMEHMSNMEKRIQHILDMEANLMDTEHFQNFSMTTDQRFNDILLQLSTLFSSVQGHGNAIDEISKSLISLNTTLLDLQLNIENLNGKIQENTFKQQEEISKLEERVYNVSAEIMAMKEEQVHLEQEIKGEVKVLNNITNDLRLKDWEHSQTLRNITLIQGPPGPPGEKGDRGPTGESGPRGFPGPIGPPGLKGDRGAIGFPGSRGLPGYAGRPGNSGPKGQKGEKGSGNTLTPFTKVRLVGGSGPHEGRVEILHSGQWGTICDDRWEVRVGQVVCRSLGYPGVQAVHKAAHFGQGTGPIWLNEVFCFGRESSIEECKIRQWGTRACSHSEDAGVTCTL
# method: SPR Biacore T200, 25 C, antibody captured by anti-human Fc, His9-hMSR1 injected; no dissociation seen, kd fixed at 1.00E-05

// known answers, use as guide
Ask: Answer with the recorded koff for the binder listed here: H1H27732P-N297Q-LP1 (antibody, human IgG1, V domains shown, LXR agonist linker-payload LP1 clicked to azido-PEG3-amine on Q295 and Q297 (EU) of the heavy chain constant region, antibody-drug conjugate; human IgG1 Fc with N297Q (EU); also called H1H27732P-LP1) VH: QLQLQESGPGLVKPSETLSLTCTVSGGSISSSTYYWGWIRQPPGKGLEWIGSFYYSGSTYYNPSLKSRVTISVGTSKNQFSLKLSSVTAADTAVYFCARGGLLGRPFVIWGQGTMVTVSS VL: DIQMTQSPSSLSASVGDRVTITCRASQGIRNDLGWYQQKPGKAPKRLIYAASSLQSGVPSRFSGSGSGTEFTLTISSLQPEDFATYYCLQHNSYPLTFGGGTKVEIKR
Result: ≤ 1e-05 s⁻¹

Ask: Answer with the recorded koff for the binder listed here: H1H21234N-N297Q-LP1 (antibody, human IgG1, V domains shown, LXR agonist linker-payload LP1 clicked to azido-PEG3-amine on Q295 and Q297 (EU) of the heavy chain constant region, antibody-drug conjugate; human IgG1 Fc with N297Q (EU); also called H1H21234N-LP1) VH: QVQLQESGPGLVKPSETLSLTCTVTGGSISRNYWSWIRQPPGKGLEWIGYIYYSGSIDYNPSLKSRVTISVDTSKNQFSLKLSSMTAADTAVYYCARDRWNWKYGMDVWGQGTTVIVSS VL: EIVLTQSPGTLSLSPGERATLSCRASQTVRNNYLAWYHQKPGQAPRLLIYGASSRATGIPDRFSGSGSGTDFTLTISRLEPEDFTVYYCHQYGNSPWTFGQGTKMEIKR
Result: ≤ 1e-05 s⁻¹

Next:
Ask: Answer with the recorded koff for the binder listed here: H1H27754P-N297Q-LP1 (antibody, human IgG1, V domains shown, LXR agonist linker-payload LP1 clicked to azido-PEG3-amine on Q295 and Q297 (EU) of the heavy chain constant region, antibody-drug conjugate; human IgG1 Fc with N297Q (EU); also called H1H27754P-LP1) VH: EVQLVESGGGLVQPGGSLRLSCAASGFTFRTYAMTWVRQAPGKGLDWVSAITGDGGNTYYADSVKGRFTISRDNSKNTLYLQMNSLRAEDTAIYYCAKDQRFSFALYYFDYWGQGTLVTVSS VL: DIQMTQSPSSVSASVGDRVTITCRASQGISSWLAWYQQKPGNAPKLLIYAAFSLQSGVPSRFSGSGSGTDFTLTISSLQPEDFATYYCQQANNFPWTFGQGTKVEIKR
Result: ≤ 1e-05 s⁻¹
